This collection of values is drawn from the supplement of paper PMC11208160.

Entries annotated with measured recombinant UMI read abundance (log10)
# test: recombinant UMI read abundance after kanamycin selection (control-corrected) (log10(CPM+1)); higher = more efficient recombination; extreme values may be limits of the assay; sequences stand for … in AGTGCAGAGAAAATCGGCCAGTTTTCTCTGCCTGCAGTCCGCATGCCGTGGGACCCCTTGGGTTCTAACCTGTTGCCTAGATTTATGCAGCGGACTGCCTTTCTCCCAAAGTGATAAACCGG…AGGTTGGTTTCACT; site = the 11-nt donor;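 further: IS621 bridge recombinase in Escherichia coli cells against a fixed T5 target plasmid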
Answer field: number only, no words.

Please review the following examples before continuing.
[
  {
    "residueString": "TGCTAGGCATGGACCGGTTTTCCCGGTAATCCGTATTTGCT (site TGCTAGGCTAA)",
    "recombinant UMI read abundance (log10)": 0.0205
  },
  {
    "residueString": "TATGCGGCATGGACCGGTTTTCCCGGTAATCCGTATTTGAT (site TATGCGGCTAT)",
    "recombinant UMI read abundance (log10)": 0.581
  }
]

# recombinant UMI read abundance (log10) (sequence: CAATGCTCATGGACCGGTTTTCCCGGTAATCCGTATTTGCA (site CAATGCTCTTG) ) is 2.35

# recombinant UMI read abundance (log10) (sequence: ACAGTATCATGGACCGGTTTTCCCGGTAATCCGTATTTGCA (site ACAGAATCTTC) ) is 0.287

# recombinant UMI read abundance (log10) (sequence: AATGTGTCATGGACCGGTTTTCCCGGTAATCCGTATTTGAC (site TATGTGTCTGT) ) is 1.95

# recombinant UMI read abundance (log10) (sequence: TGAGGTGCATGGACCGGTTTTCCCGGTAATCCGTATTTGGT (site TGAGGTGCTAC) ) is 0.98

# recombinant UMI read abundance (log10) (sequence: CTCTAGACATGGACCGGTTTTCCCGGTAATCCGTATTTGCT (site CTCTATACTAG) ) is 0

# recombinant UMI read abundance (log10) (sequence: AGGACTACATGGACCGGTTTTCCCGGTAATCCGTATTTGAC (site TGGACTACTGT) ) is 0.901

# recombinant UMI read abundance (log10) (sequence: ATCTATACATGGACCGGTTTTCCCGGTAATCCGTATTTGAG (site ATCTATACTCT) ) is 1.31
